- System: Neuregulin-1 EGF-like domain
- run description: small molecules binding NRG1 EGF domain – biochemical, small-molecule microarray, 635 nm fluorescence, primary screen (AID 1081);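 further: binding of the protein to compounds printed on small-molecule microarray slides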
- condition label: higher = more signal
Respond with y for composite z-score values of 1 and above, n for values below.

**Q:** Could you please find out whether `COc1ccc([Si](C)(C)[C@H]2[C@H](CC(=O)N3Cc4ccccc4C[C@H]3CO)O[C@@]3(C(=O)N(Cc4ccc(N5CCOC5=O)cc4)c4ccccc43)[C@@H]2C)cc1` has composite z-score that meets 1 or exceeds it?
**A:** y

**Q:** Same thing, different compound: O=C1OCCC=C[C@H]2OC34C=CCN(c5ccc6ccccc6c5)C(=O)[C@H]3N(CCCO)C(=O)[C@@H]4C12 (stereo not given in full)
**A:** n

**Q:** Same thing, different compound: `Cc1ccc(S[C@]2(C(=O)O)CC(=O)N(C3CCCCC3)[C@@H]2c2ccc(CO)cc2I)cc1`
**A:** y

**Q:** Same thing, different compound: CCCCC(CC)C(O)C1C=CC2C(=O)N(c3ccccc3)C(=O)C2N1Nc1ccccc1F (stereo not given)
**A:** y

**Q:** Same thing, different compound: `COc1ccc([Si](C)(C)[C@@H]2[C@@H](CC(=O)N(CCO)Cc3ccccc3)O[C@]3(C(=O)N(Cc4cccc(N5CCCCC5=O)c4)c4ccccc43)[C@H]2C)cc1`
**A:** y

**Q:** Same thing, different compound: `C=CCNC(=O)[C@@H]1[C@H]2C(=O)O[C@H](c3ccccc3)[C@H](c3ccccc3)N2[C@H](c2ccccc2OCCO)[C@@]12C(=O)Nc1ccc(C#CCCO)cc12`
**A:** y

**Q:** Same thing, different compound: `O=c1cccc(-c2ccc([N+](=O)[O-])cc2)o1`
**A:** n

**Q:** Same thing, different compound: `COC(=O)C/C=C/C[C@]1(O)C(=O)N(C)c2ccccc21`
**A:** n

**Q:** Same thing, different compound: `CCOC(=O)C[C@H]1[C@H](OC(=O)c2ccc(C(=O)c3ccccc3)cc2)[C@@H](NC(=O)c2ccc(-c3ccccc3)cc2)c2cc(OCCCO)ccc2N1C(=O)Cc1ccc(OC)cc1`
**A:** n

**Q:** Same thing, different compound: `Cc1ccc(S[C@]2(C(=O)NCCN3CCOCC3)CC(=O)N(Cc3ccccc3Cl)[C@@H]2c2ccc(CO)cc2I)cc1`
**A:** y

**Q:** Same thing, different compound: `COCCOC(=O)N1C(=O)[C@@]2(c3cc(C#CC4=CCCCC4)ccc31)[C@H](c1ccccc1OCCO)N1[C@H](c3ccccc3)[C@H](c3ccccc3)OC(=O)[C@H]1[C@@H]2C(=O)NC[C@H](O)c1ccccc1`
**A:** y

**Q:** Same thing, different compound: COc1cc(NN2C(C(O)c3ccco3)C=CC3C(=O)N(C)C(=O)C32)cc(OC)c1OC (stereo not given)
**A:** y

**Q:** Same thing, different compound: `COCCOC(=O)N1C(=O)[C@@]2(c3cc(C#CC4(O)CCCCCC4)ccc31)[C@H](c1ccc(O)cc1)N1[C@H](c3ccccc3)[C@H](c3ccccc3)OC(=O)[C@H]1[C@@H]2C(=O)N1CCN(c2ncccn2)CC1`
**A:** y

**Q:** Same thing, different compound: COc1cc2c(cc1O)C(c1ccc(CN3CCCC3)cc1)N(Cc1cc3c(cc1Br)OCO3)CC2 (stereo not given)
**A:** n

**Q:** Same thing, different compound: `C=C[C@H]1C(C(=O)OCC)=CC[C@@H](c2ccccc2)N1S(=O)(=O)c1ccc(C)cc1`
**A:** n
